Listing: Kd of selected molecules
molecular target: Plasmin (Homo sapiens, UniProt P00747); construct: Human plasmin is purchased; purchased Boehringer Mannheim, Indianapolis, Indiana; assay: biochemical; conditions: read-out: Kass Plasmin (converted)
Sequence (P00747 581-810 limits assumed): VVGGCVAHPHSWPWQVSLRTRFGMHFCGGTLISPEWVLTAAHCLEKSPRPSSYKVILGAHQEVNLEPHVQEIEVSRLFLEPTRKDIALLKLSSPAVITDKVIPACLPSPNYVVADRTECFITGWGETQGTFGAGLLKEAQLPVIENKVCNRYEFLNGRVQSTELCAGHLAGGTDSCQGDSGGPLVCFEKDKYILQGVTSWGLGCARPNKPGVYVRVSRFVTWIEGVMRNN
Sequence (P00747 97-580 partner limits assumed): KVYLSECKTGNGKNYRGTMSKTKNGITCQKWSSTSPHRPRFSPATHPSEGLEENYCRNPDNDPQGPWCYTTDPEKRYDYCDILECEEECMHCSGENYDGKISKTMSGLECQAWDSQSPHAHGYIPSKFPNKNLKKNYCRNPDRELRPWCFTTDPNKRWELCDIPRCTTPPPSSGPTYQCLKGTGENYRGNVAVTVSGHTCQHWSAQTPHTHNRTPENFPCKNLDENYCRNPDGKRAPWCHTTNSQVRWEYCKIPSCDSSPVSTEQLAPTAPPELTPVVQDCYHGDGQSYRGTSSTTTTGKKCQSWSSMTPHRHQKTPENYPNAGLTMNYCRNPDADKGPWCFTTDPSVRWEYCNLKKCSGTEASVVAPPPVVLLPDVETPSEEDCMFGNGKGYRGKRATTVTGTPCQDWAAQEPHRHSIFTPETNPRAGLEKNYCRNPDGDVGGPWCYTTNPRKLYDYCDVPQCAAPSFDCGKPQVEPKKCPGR
Structures can show the parent of a compound that is named as a salt.
Experimental readout: Kd

[[record]]
molecule = "N=C(N)c1cccc(CCCNC(=O)[C@@H]2CCCN2C(=O)[C@@H]2NCC[C@@H]3CCCC[C@@H]32)c1"
target = "Plasmin (Homo sapiens, UniProt P00747)"
experimental_readout = "Kd"
result = "> 1000 µM"

[[record]]
molecule = "O=C(O)CN[C@H](CC1CCCCC1)C(=O)N1CCC[C@H]1C(=O)NCCC1CCNCC1"
target = "Plasmin (Homo sapiens, UniProt P00747)"
experimental_readout = "Kd"
result = "100 µM"

[[record]]
molecule = "CCS(=O)(=O)N[C@H](Cc1ccccc1)C(=O)N1CCC[C@H]1C(=O)NCCCc1ccc(C(=N)N)cc1"
target = "Plasmin (Homo sapiens, UniProt P00747)"
experimental_readout = "Kd"
result = "> 1000 µM"

[[record]]
molecule = "N=C(N)c1ccc(CCCNC(=O)[C@@H]2CCCN2C(=O)[C@@H]2NCC[C@@H]3CCCC[C@@H]32)cc1"
target = "Plasmin (Homo sapiens, UniProt P00747)"
experimental_readout = "Kd"
result = "> 1000 µM"

[[record]]
molecule = "N=C(N)c1ccc(CNC(=O)[C@@H]2CCCN2C(=O)[C@H](N)CC2CCCCC2)cc1 [Example 51, D-Cha-Pro-p-NHCH2C6H4C(NH)NH2·2HCl]"
target = "Plasmin (Homo sapiens, UniProt P00747)"
experimental_readout = "Kd"
result = "7.69 µM"

[[record]]
molecule = "N=C(N)NCc1ccc(CNC(=O)[C@@H]2CCCN2C(=O)[C@H](N)Cc2ccccc2)cc1 [Example 9, D-Phe-Pro-p-NHCH2-C6H4CH2NHC(NH)NH2·2TFA]"
target = "Plasmin (Homo sapiens, UniProt P00747)"
experimental_readout = "Kd"
result = "> 1000 µM"

[[record]]
molecule = "O=C(O)CN[C@H](CC1CCCCC1)C(=O)N1CCC[C@H]1C(=O)NCC1CCNCC1 [Example 53, HO2CCH2-D-Cha-Pro-4-NHCH2-piperidine·HCl]"
target = "Plasmin (Homo sapiens, UniProt P00747)"
experimental_readout = "Kd"
result = "> 1000 µM"

[[record]]
molecule = "NCc1ccc(CNC(=O)[C@@H]2CCCN2C(=O)[C@H](N)Cc2ccccc2)cc1 [Example 10, D-Phe-Pro-p-NHCH2C6H4CH2NH2·HCl]"
target = "Plasmin (Homo sapiens, UniProt P00747)"
experimental_readout = "Kd"
result = "222 µM"

[[record]]
molecule = "O=C(O)CN[C@H](CC1CCCCC1)C(=O)N1CCC[C@H]1C(=O)NCCC1=CCNCC1"
target = "Plasmin (Homo sapiens, UniProt P00747)"
experimental_readout = "Kd"
result = "> 1000 µM"

